- PROTOCOL DESCRIPTION: in vivo
- DETAILS: mouse, ip, intraperitoneal, hydrochloride, male ddy mice
Response field label: string, one of 1.0 (LD50 strictly below 300 mg/kg) or 0.0.

COMPOUND: CCN(CC)CCCNc1n[nH]c2c(N)cc(N)cc12
CATEGORY LABEL: 0.0
//
COMPOUND: CCN(CC)CCCn1nc(N)c2cc(N)cc(N)c21
CATEGORY LABEL: 1.0
//
COMPOUND: CN1CCN(CCCn2nc(N)c3cc(Cl)ccc32)CC1
CATEGORY LABEL: 1.0
//
COMPOUND: CCN(CC)CCCNc1nn(CCCN(CC)CC)c2c(I)cccc12
CATEGORY LABEL: 0.0
//
COMPOUND: CC(C)CC(CCNc1nn(CCC(C)N2CCCCC2)c2ccc(O)cc12)N1CCCCC1 (stereo not shown)
CATEGORY LABEL: 1.0
//
COMPOUND: CCN(CC)CCCNc1n[nH]c2ccc(N)cc12
CATEGORY LABEL: 1.0
//
COMPOUND: Oc1ccc2c(c1)c(NCCCN1CCC(Cl)CC1)nn2CCCN1CCOCC1
CATEGORY LABEL: 1.0
//
COMPOUND: OC1CCN(CCCNc2nn(CCCN3CCOCC3)c3ccc(Cl)cc23)CC1
CATEGORY LABEL: 1.0
//
COMPOUND: CCN(CC)CCCNc1nn(CCCN(CC)CC)c2cccc(O)c12
CATEGORY LABEL: 1.0
//
COMPOUND: Clc1ccc2[nH]nc(NCCCCCCN3CCCCC3)c2c1
CATEGORY LABEL: 1.0
//
COMPOUND: CCN(CC)CCCNc1n[nH]c2cccc(O)c12
CATEGORY LABEL: 1.0
//
COMPOUND: CC1CCCC(C)N1CCCn1nc(N)c2cc(Cl)ccc21 (stereo not shown)
CATEGORY LABEL: 1.0
//
COMPOUND: CC1CCCC(C)N1CCCNc1nn(CCCN2CCOCC2)c2ccc(Cl)cc12 (stereo not shown)
CATEGORY LABEL: 0.0
//
COMPOUND: CCN(CC)C(CCn1nc(N)c2cc(O)ccc21)CC(C)C (stereo not shown)
CATEGORY LABEL: 1.0
//
COMPOUND: CC(CCNc1n[nH]c2ccc(Cl)cc12)N1CCCCC1 (stereo not shown)
CATEGORY LABEL: 1.0
//
COMPOUND: CCN(CC)CCCNc1n[nH]c2cc(O)ccc12
CATEGORY LABEL: 1.0
//
COMPOUND: CCCCN(CCCC)CCCn1nc(NCCCN2CCOCC2)c2ccccc21
CATEGORY LABEL: 1.0
//
COMPOUND: CCN(CC)CCCn1nc(N)c2cc(O)ccc21
CATEGORY LABEL: 1.0
//
COMPOUND: CC(CCNc1nn(CCC(C)N2CCCCC2)c2ccc(O)cc12)N(C)C (stereo not shown)
CATEGORY LABEL: 1.0
//
COMPOUND: CCN(CC)CCCn1nc(N)c2cc(N)ccc21
CATEGORY LABEL: 0.0
//
COMPOUND: CC1CCCCN1CCCn1nc(N)c2cc(Cl)ccc21 (stereo not shown)
CATEGORY LABEL: 1.0
//
COMPOUND: CCN(CC)CCCn1nc(N)c2cccc(I)c21
CATEGORY LABEL: 1.0

###

- PROTOCOL DESCRIPTION: in vivo
- DETAILS: mouse, ip, intraperitoneal, hydrochloride, male ddy mice
Response field label: string, one of MET (LD50 strictly below 300 mg/kg) or NOT MET.

MOLECULE: CCN(CC)CCCNc1nn(CCCN2CCCCC2)c2ccc(O)cc12
CATEGORY LABEL: MET
--
MOLECULE: CCN(CC)CCCNc1nn(CCCN(CC)CC)c2c(O)cccc12
CATEGORY LABEL: MET
--
MOLECULE: CN1CCN(CCCn2nc(N)c3cc(O)ccc32)CC1
CATEGORY LABEL: NOT MET
--
MOLECULE: Oc1ccc2[nH]nc(NCCCN3CCCCCC3)c2c1
CATEGORY LABEL: MET
--
MOLECULE: CCN(CC)CCCNc1n[nH]c2cc(Cl)ccc12
CATEGORY LABEL: MET
--
MOLECULE: CCN(CC)CCCNc1nn(CCCN(CC)CC)c2ccc(O)cc12
CATEGORY LABEL: MET
--
MOLECULE: Nc1nn(CCCN2CCC(O)CC2)c2ccc(O)cc12
CATEGORY LABEL: NOT MET
--
MOLECULE: CC(CCNc1n[nH]c2ccccc12)N1CCOCC1 (centres unmarked)
CATEGORY LABEL: NOT MET
--
MOLECULE: CCN(CC)CCCNc1n[nH]c2cccc(Cl)c12
CATEGORY LABEL: MET
--
MOLECULE: Oc1ccc2[nH]nc(NCCCN3CCCC3)c2c1
CATEGORY LABEL: MET
--
MOLECULE: Nc1nn(CCCN2CCCCCC2)c2ccc(O)cc12
CATEGORY LABEL: NOT MET
--
MOLECULE: CCN(CC)CCCNc1n[nH]c2ccc(O)cc12
CATEGORY LABEL: NOT MET
--
MOLECULE: Oc1ccc2c(c1)c(NCCCCCCN1CCCCC1)nn2CCCN1CCCCC1
CATEGORY LABEL: NOT MET
--
MOLECULE: CN1CCN(CCCNc2n[nH]c3ccc(Cl)cc23)CC1
CATEGORY LABEL: MET
--
MOLECULE: Clc1ccc2[nH]nc(NCCCN3CCCCCC3)c2c1
CATEGORY LABEL: NOT MET
--
MOLECULE: CCN(CC)CCCn1nc(NCCC(C)N2CCCCC2)c2cc(O)ccc21 (centres unmarked)
CATEGORY LABEL: MET
--
MOLECULE: Clc1ccc2[nH]nc(NCCCN3CCC(Cl)CC3)c2c1
CATEGORY LABEL: NOT MET
--
MOLECULE: CC(CCn1nc(N)c2cc(Cl)ccc21)N(C)C (centres unmarked)
CATEGORY LABEL: MET
--
MOLECULE: CCN(CC)CCCNc1nn(CCC(C)N(C)C)c2ccc(O)cc12 (centres unmarked)
CATEGORY LABEL: MET
--
MOLECULE: Clc1ccc2c(c1)c(NCCCN1CCCCC1)nn2CCCN1CCCCC1
CATEGORY LABEL: MET
--
MOLECULE: CCN(CC)CCCNc1nn(CCCN2CCCCC2)c2ccc(Cl)cc12
CATEGORY LABEL: MET
--
MOLECULE: Nc1n[nH]c2ccc(I)cc12
CATEGORY LABEL: MET
--
MOLECULE: CC1CCCC(C)N1CCCNc1n[nH]c2ccc(O)cc12 (centres unmarked)
CATEGORY LABEL: MET
--
MOLECULE: Oc1ccc2[nH]nc(NCCCN3CCC(Cl)CC3)c2c1
CATEGORY LABEL: MET
--
MOLECULE: CC(CCn1nc(NCCC(C)N2CCCCC2)c2cc(O)ccc21)N(C)C (centres unmarked)
CATEGORY LABEL: NOT MET
--
MOLECULE: CCN(CC)CCCNc1nn(CCCN(CC)CC)c2ccc(Cl)cc12
CATEGORY LABEL: MET
--
MOLECULE: CCCCN(CCCC)CCCn1nc(N)c2cc(Cl)ccc21
CATEGORY LABEL: MET
--
MOLECULE: CCN(CC)CCCn1nc(N)c2cc(OC)ccc21
CATEGORY LABEL: MET
--
MOLECULE: CCN(CC)CCCn1nc(N)c2cc(Cl)ccc21
CATEGORY LABEL: MET
--
MOLECULE: CCN(CC)CCCn1nc(N)c2cccc(Cl)c21
CATEGORY LABEL: MET
--
MOLECULE: CCN(CC)CCCNc1n[nH]c2c(O)cccc12
CATEGORY LABEL: MET
--
MOLECULE: CCN(CC)CCCNc1nn(CCCN(CC)CC)c2c(N)cc(N)cc12
CATEGORY LABEL: NOT MET
--
MOLECULE: CC1CCCCN1CCCNc1n[nH]c2ccc(O)cc12 (centres unmarked)
CATEGORY LABEL: MET
--
MOLECULE: CCN(CC)C(CCNc1nn(CCC(C)N(C)C)c2ccc(Cl)cc12)CC(C)C (centres unmarked)
CATEGORY LABEL: NOT MET
--
MOLECULE: CCCCN(CCCC)CCCNc1n[nH]c2ccc(O)cc12
CATEGORY LABEL: MET
--
MOLECULE: Nc1nn(CCCCCCN2CCCCC2)c2ccc(O)cc12
CATEGORY LABEL: MET
--
MOLECULE: Nc1n[nH]c2ccc(O)cc12 [(162), 3-Amino-5-hydroxyindazole]
CATEGORY LABEL: MET
--
MOLECULE: CCN(CC)CCCn1nc(N)c2cc(C)ccc21
CATEGORY LABEL: MET
--
MOLECULE: Clc1ccc2[nH]nc(NCCCN3CCCC3)c2c1
CATEGORY LABEL: MET
